Subject of test: PPAR-delta (UniProt Q03181)
Assay summary: PPAR-delta transactivation assay (GAL4 chimera, luciferase reporter) in CV-1 cells
Condition label: GAL4-PPAR LBD chimera
pEC50: −log10 of the molar value.
Reported values of pEC50 for individual entries

IN: What does the data say about its pEC50? Entry: C[C@H]1CN(S(=O)(=O)c2ccc3c(c2)C(C(=O)O)CC3)CCN1c1ccc(OC(F)(F)F)cc1 (some centres unmarked)
OUT: > 5.30

IN: What does the record list as pEC50 for CC1(C(=O)O)Cc2cccc(S(=O)(=O)N3CCN(c4ccc(C(F)(F)F)cn4)CC3)c2C1 (centres unmarked) ?
OUT: 4.00 to 5.30

IN: Fill in the blank: the reported pEC50 of C[C@@H]1CN(c2cc(Cl)c(C(F)(F)F)cn2)C[C@H](C)N1S(=O)(=O)c1cccc2c1CC(C(=O)O)C2 (some centres unmarked) is ____.
OUT: > 5.30

IN: Data request, read-out pEC50, for C[C@@H]1CN(c2ccc(C(F)(F)F)cc2)C[C@H](C)N1S(=O)(=O)c1ccc2c(c1)C(C(=O)O)CC2 (some centres unmarked)
OUT: > 5.30

IN: Which pEC50 is reported for this molecule? C[C@H]1CN(c2ccc(C(F)(F)F)cn2)C[C@H](C)N1S(=O)(=O)c1ccc2c(c1)C(C(=O)O)CC2 (some centres unmarked)
OUT: > 5.30
